meta.source: patent US20140235701

Molecular target: NGF (nerve growth factor) (Homo sapiens, UniProt P01138 P01138:122-241)
Sequence (P01138 122-241, one chain of several): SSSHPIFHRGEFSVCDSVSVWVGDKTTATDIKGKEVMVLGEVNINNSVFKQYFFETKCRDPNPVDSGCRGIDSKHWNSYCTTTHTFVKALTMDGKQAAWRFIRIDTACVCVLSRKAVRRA
Assay: cell_activity; neurite; TF-1 <0.1
Details: tags: R&D Systems; chain copies: 2
metric: IC50 (nM)

>>> observed_result("GGGUCCUGUGGAAGAGUUUCCGUCUCGUCCACUGUUACCC (ssRNA, 2'-OMe G1-3,C6,G14,G16,C21,G22,U23,C26,G27,U28,C32,U35,C38-40; other C/U 2'-F, G 2'-OH, dA; 5',3' idT) [SEQ ID NO: 89(2)]")
0.103
>>> observed_result("GGGUCCUGCUCAAGAGUUUCCGUCUCGUGGGCUGUUACCC (ssRNA, as 87(2) plus 2'-OMe G29-31) [SEQ ID NO: 87(3)]")
0.118
>>> observed_result("GGGUCCUGUUCAAGAGUUUCCGUCUCGUGAACUGUUACCC (ssRNA, 2'-OMe G1-3,C38-40; other C/U 2'-F, G 2'-OH, dA; 5',3' idT) [SEQ ID NO: 88(2)]")
0.241
